Just for reference, ChEMBL document CHEMBL1133563 is where these values come from.

target: Stromelysin-1 (Homo sapiens, UniProt P08254); assay: In vitro inhibitory activity against matrix metalloprotease -3 (stromelysin)
Sequence (P08254 whole entry): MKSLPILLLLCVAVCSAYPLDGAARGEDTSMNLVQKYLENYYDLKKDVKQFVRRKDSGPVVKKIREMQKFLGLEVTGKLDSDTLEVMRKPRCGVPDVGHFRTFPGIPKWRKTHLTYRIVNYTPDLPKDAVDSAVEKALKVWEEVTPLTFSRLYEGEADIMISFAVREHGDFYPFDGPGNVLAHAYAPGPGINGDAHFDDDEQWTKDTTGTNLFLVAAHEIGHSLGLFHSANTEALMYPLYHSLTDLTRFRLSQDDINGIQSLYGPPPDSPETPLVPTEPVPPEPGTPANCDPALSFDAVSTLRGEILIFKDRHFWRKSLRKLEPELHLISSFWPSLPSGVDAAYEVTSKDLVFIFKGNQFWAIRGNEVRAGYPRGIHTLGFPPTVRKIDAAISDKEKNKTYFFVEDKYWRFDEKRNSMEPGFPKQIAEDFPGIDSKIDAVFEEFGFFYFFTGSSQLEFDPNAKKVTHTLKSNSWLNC
Observed Property: IC50
Please give the number followed by its unit.

Record excerpt, results attached:
>  <Smiles Text>
CCCCOc1ccc(S(=O)(=O)N2C[C@@H](NC(=O)[C@@H](O)CC(C)C)C[C@@H]2C(=O)NO)cc1

>  <Measured Target>
Stromelysin-1 (Homo sapiens, UniProt P08254)

>  <Result>
10 nM

$$$$
>  <Smiles Text>
COc1ccc(S(=O)(=O)N2C[C@@H](NS(C)(=O)=O)C[C@@H]2C(=O)NO)cc1

>  <Measured Target>
Stromelysin-1 (Homo sapiens, UniProt P08254)

>  <Result>
42 nM

$$$$
>  <Smiles Text>
CCCCOc1ccc(S(=O)(=O)N2C[C@@H](NC(=O)COC)C[C@@H]2C(=O)NO)cc1

>  <Measured Target>
Stromelysin-1 (Homo sapiens, UniProt P08254)

>  <Result>
14 nM

$$$$
>  <Smiles Text>
COc1ccc(S(=O)(=O)N2C[C@@H](N3CCCCC3)C[C@@H]2C(=O)NO)cc1

>  <Measured Target>
Stromelysin-1 (Homo sapiens, UniProt P08254)

>  <Result>
48 nM

$$$$
>  <Smiles Text>
C=CCN1CC(=O)N([C@H]2C[C@H](C(=O)NO)N(S(=O)(=O)c3ccc(OCCOC)cc3)C2)C1=O

>  <Measured Target>
Stromelysin-1 (Homo sapiens, UniProt P08254)

>  <Result>
46 nM

$$$$
>  <Smiles Text>
COc1ccc(S(=O)(=O)N2C[C@@H](N3CCS(=O)(=O)CC3)C[C@@H]2C(=O)NO)cc1

>  <Measured Target>
Stromelysin-1 (Homo sapiens, UniProt P08254)

>  <Result>
23 nM

$$$$

Fill in IC50 for record CCCCOc1ccc(S(=O)(=O)N2C[C@@H](N3CCS(=O)(=O)CC3)C[C@@H]2C(=O)NO)cc1
12 nM

Input CCCOc1ccc(S(=O)(=O)N2C[C@@H](N3CCCCC3)C[C@@H]2C(=O)NO)cc1 , output reported IC50.
9 nM

Give a short answer stating reported IC50 for COc1ccc(S(=O)(=O)N[C@H]2C[C@H](C(=O)NO)N(S(=O)(=O)c3ccc(OC)cc3)C2)cc1 .
36 nM

Tell us which IC50 value is on record for CCCCOc1ccc(S(=O)(=O)N2C[C@@H](N3CCOCC3)C[C@@H]2C(=O)NO)cc1
5 nM

Dear colleague, please send me the reported IC50 for CCCOc1ccc(S(=O)(=O)N2C[C@@H](N3CCCC3)C[C@@H]2C(=O)NO)cc1 when you can.
8 nM

Item CCCCOc1ccc(S(=O)(=O)N2C[C@@H](N3C(=O)CN(CCC)C3=O)C[C@@H]2C(=O)NO)cc1 : provide IC50
10 nM

Return the recorded IC50 value; entry: CCCCOc1ccc(S(=O)(=O)N2C[C@@H](NC(=O)[C@H](C)O)C[C@@H]2C(=O)NO)cc1
10 nM

Supply measured IC50 of CCOc1ccc(S(=O)(=O)N2C[C@@H](N3C(=O)CN(C)C3=O)C[C@@H]2C(=O)NO)cc1 in your reply.
33 nM

---

molecular target: Stromelysin-1 (Homo sapiens); test: In vitro inhibitory activity against matrix metalloprotease -3 (stromelysin)
Output: class label from IC50. Mapping: interval 1 (below 7 nM), interval 2 (7 nM to below 10 nM), interval 3 (10 nM or more)

Record excerpt, results attached:
>  <Compound>
C=CCN1CC(=O)N([C@H]2C[C@H](C(=O)NO)N(S(=O)(=O)c3ccc(OCCC)cc3)C2)C1=O

>  <Measured Target>
Stromelysin-1 (Homo sapiens)

>  <Class>
interval 3

$$$$
>  <Compound>
CCCN[C@H]1C[C@H](C(=O)NO)N(S(=O)(=O)c2ccc(OC)cc2)C1

>  <Measured Target>
Stromelysin-1 (Homo sapiens)

>  <Class>
interval 3

$$$$
>  <Compound>
CCCCOc1ccc(S(=O)(=O)N2C[C@@H](NC(=O)[C@@H](O)C(C)C)C[C@@H]2C(=O)NO)cc1

>  <Measured Target>
Stromelysin-1 (Homo sapiens)

>  <Class>
interval 2

$$$$
>  <Compound>
COc1ccc(S(=O)(=O)N2C[C@@H](N(Cc3cccnc3)S(C)(=O)=O)C[C@@H]2C(=O)NO)cc1

>  <Measured Target>
Stromelysin-1 (Homo sapiens)

>  <Class>
interval 1

$$$$

Hello team, could you let me know which band the following compound falls into: CCCOc1ccc(S(=O)(=O)N2C[C@@H](NC(=O)[C@H](C)O)C[C@@H]2C(=O)NO)cc1
interval 2

Any idea which band COc1ccc(S(=O)(=O)N2C[C@@H](NC(=O)c3ccc(-c4ccccc4)cc3)C[C@@H]2C(=O)NO)cc1 is in?
interval 3

Consider CCCN(C(=O)[C@H](C)O)[C@H]1C[C@H](C(=O)NO)N(S(=O)(=O)c2ccc(OC)cc2)C1 . To which IC50 class does it belong?
interval 1

Pick a category. Item: CCCCOc1ccc(S(=O)(=O)N2C[C@@H](N3C(=O)NC(SC)C3=O)C[C@@H]2C(=O)NO)cc1 (stereo partly specified)
interval 3

Given COc1ccc(S(=O)(=O)N2C[C@@H](N(C)S(C)(=O)=O)C[C@@H]2C(=O)NO)cc1 , name the class its IC50 places it in.
interval 1

Any idea which band CCCOc1ccc(S(=O)(=O)N2C[C@@H](N3C(=O)CN(C)C3=O)C[C@@H]2C(=O)NO)cc1 is in?
interval 2

---

target: Collagenase 3 (Homo sapiens, UniProt P45452)
Observed Property: IC50 (nM)
Express the result in nM but write the number alone.

Fill in IC50 for record CCCN(C(=O)[C@@H](O)CCc1ccccc1)[C@H]1C[C@H](C(=O)NO)N(S(=O)(=O)c2ccc(OC)cc2)C1
0.5

---

IC50 by entry:
molecular target: Collagenase 3 (Homo sapiens); assay: In vitro inhibitory activity against human recombinant matrix metalloprotease-13 (collagenase-3)
Report as a plain number; the unit nM is understood.

>  <Smiles Text>
COc1ccc(S(=O)(=O)N2C[C@@H](N(C)S(C)(=O)=O)C[C@@H]2C(=O)NO)cc1

>  <Measured Target>
Collagenase 3 (Homo sapiens)

>  <IC50, nM>
0.5

$$$$

Respond only with IC50 recorded for CCCCOc1ccc(S(=O)(=O)N2C[C@@H](NC(=O)[C@@H](O)CC(C)C)C[C@@H]2C(=O)NO)cc1
0.9

Using the record for CC(C)COc1ccc(S(=O)(=O)N2C[C@@H](N3C(=O)CN(C)C3=O)C[C@@H]2C(=O)NO)cc1 , state its measured IC50.
2.8

Output measured IC50 for this item: CCCOc1ccc(S(=O)(=O)N2C[C@@H](NC(=O)COC)C[C@@H]2C(=O)NO)cc1
3

Report IC50, nothing else, for this compound: CNC(=O)N[C@H]1C[C@H](C(=O)NO)N(S(=O)(=O)c2ccc(OC)cc2)C1
27

---

Molecular target: UniProtKB P03956
Sequence (P03956 whole entry): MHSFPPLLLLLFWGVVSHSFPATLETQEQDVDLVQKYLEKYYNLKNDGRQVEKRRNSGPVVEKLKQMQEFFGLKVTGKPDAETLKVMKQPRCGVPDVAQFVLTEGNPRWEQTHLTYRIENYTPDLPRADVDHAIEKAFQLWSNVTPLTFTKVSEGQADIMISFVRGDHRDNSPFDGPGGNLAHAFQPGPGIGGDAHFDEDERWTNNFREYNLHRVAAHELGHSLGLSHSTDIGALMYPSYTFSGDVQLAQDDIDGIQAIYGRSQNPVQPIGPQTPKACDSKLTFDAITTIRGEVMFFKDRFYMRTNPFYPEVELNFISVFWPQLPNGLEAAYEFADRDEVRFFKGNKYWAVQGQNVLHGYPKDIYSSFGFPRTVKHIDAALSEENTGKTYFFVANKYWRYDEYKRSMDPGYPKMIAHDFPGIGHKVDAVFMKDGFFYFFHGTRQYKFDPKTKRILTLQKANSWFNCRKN
pIC50: −log10 of the molar value.
Would you please tag the item class 1 when its pIC50 is 7 or above, and class 0 when it is below?

These solved cases illustrate the format of a correct answer.
>  <Compound>
COc1ccc(S(=O)(=O)N2C[C@@H](NC(=O)c3ccc(-c4ccccc4)cc3)C[C@@H]2C(=O)NO)cc1

>  <Class>
class 0

$$$$
>  <Compound>
C=CCN1CC(=O)N([C@H]2C[C@H](C(=O)NO)N(S(=O)(=O)c3ccc(OCCCC)cc3)C2)C1=O

>  <Class>
class 0

$$$$
>  <Compound>
O=C(NO)[C@H]1C[C@H](N2CCCC2)CN1S(=O)(=O)c1ccc(Oc2ccc(F)cc2)cc1

>  <Class>
class 1

$$$$
>  <Compound>
COc1ccc(S(=O)(=O)N2C[C@@H](N(C)S(C)(=O)=O)C[C@@H]2C(=O)NO)cc1

>  <Class>
class 1

$$$$
>  <Compound>
CCCCOc1ccc(S(=O)(=O)N2C[C@@H](N3C(=O)CN(CCC)C3=O)C[C@@H]2C(=O)NO)cc1

>  <Class>
class 0

$$$$

hey, is pIC50 for this one >= 7? CCCCOc1ccc(S(=O)(=O)N2C[C@@H](N3CCOCC3)C[C@@H]2C(=O)NO)cc1
class 0

Can COc1ccc(S(=O)(=O)N2C[C@@H](NS(C)(=O)=O)C[C@@H]2C(=O)NO)cc1 be said to have pIC50 at or above 7?
class 0

Given the entry CCCCOc1ccc(S(=O)(=O)N2C[C@@H](N3C(=O)NC(C)(C)C3=O)C[C@@H]2C(=O)NO)cc1 , answer whether its pIC50 meets or surpasses 7.
class 0

Does pIC50 meet or surpass 7 for COc1ccc(S(=O)(=O)N2C[C@@H](N3C(=O)CN(C)C3=O)C[C@@H]2C(=O)NO)cc1 ?
class 0
